assay: Oral bioavailability in rats, Method B (plasma and brain PK); assay type: in vivo, Sprague Dawley rats; settings: male, Sprague Dawley; rat plasma, Method B, 1 mg/kg po; read-out: t1/2 (po)

[
  {
    "SMILES_REPR": "N[C@]1(c2ccc(F)cc2)CCCCC1=O",
    "MEASURE_UNIT": "h",
    "half-life": 3.88
  },
  {
    "SMILES_REPR": "CN[C@@]1(c2ccc(F)cc2)CCCCC1=O",
    "MEASURE_UNIT": "h",
    "half-life": 1.58
  },
  {
    "SMILES_REPR": "CN[C@]1(c2ccc(F)cc2)CCCCC1=O",
    "MEASURE_UNIT": "h",
    "half-life": 1.46
  }
]

----------
The reader will find reported concentration at 2 h values listed item by item below.
assay: Comparative metabolism/PK of 2R and deuterated 7R in rats after oral administration; assay type: in vivo, Sprague Dawley rats; conditions: male, Sprague Dawley, rat, brain, oral, 10 mg/kg, rat brain, 2 h after 10 mg/kg po of 2R or 7R; read-out: Mean brain concentration

[
  {
    "SMILES_REPR": "[2H]C([2H])([2H])N[C@@]1(c2ccc(F)cc2)CCCCC1=O",
    "concentration at 2 h": "1420 ng/g"
  },
  {
    "SMILES_REPR": "CN[C@]1(c2ccc(F)cc2)CCCCC1=O",
    "concentration at 2 h": "521 ng/g"
  },
  {
    "SMILES_REPR": "N[C@@]1(c2ccc(F)cc2)CCCCC1=O",
    "concentration at 2 h": "2670 ng/g"
  }
]

----------
The reader will find reported concentration at 1 h values listed item by item below.
experiment: Comparative metabolism/PK of 2R and deuterated 7R in rats after oral administration; assay type: in vivo, Sprague Dawley rats; details: male, Sprague Dawley, rat, plasma, oral, 10 mg/kg, rat plasma, 1 h after 10 mg/kg po of 2R or 7R; read-out: Mean plasma concentration

[
  {
    "COMPOUND": "[2H]C([2H])([2H])N[C@@]1(c2ccc(F)cc2)CCCCC1=O [Compound 7R]",
    "concentration at 1 h": "564 ng/mL"
  },
  {
    "COMPOUND": "CN[C@@]1(c2ccc(F)cc2)CCCCC1=O [Compound 2R]",
    "concentration at 1 h": "497 ng/mL"
  },
  {
    "COMPOUND": "N[C@@]1(c2ccc(F)cc2)CCCCC1=O [Compound 1R]",
    "concentration at 1 h": "2110 ng/mL"
  }
]

----------
test: Comparative oral pharmacokinetics of 2R, 2S and 2-F-DCK in mice; assay type: in vivo, C57BL/6 mice; conditions: male, C57BL/6; mouse plasma, 10 mg/kg po; read-out: AUC0-last (po) (converted)
MEASURE_NAME: AUC(0-t)

[
  {
    "COMPOUND": "CN[C@@]1(c2ccc(F)cc2)CCCCC1=O",
    "ASSAY_RESULT": "1120 ng·h/mL"
  },
  {
    "COMPOUND": "CNC1(c2ccccc2F)CCCCC1=O (stereo not drawn) [Compound 2-F-DCK, reference compound]",
    "ASSAY_RESULT": "1150 ng·h/mL"
  },
  {
    "COMPOUND": "CN[C@]1(c2ccc(F)cc2)CCCCC1=O",
    "ASSAY_RESULT": "940 ng·h/mL"
  }
]

Where do the numbers come from? From patent US20240300886A1.
